system: CEM cells HIV-1 protection, formazan growth assay; test: NCI AIDS Antiviral Assay
Observation Type: EC50

Worked examples, 3 molecules total:
Cc1ccccc1[P+](Cc1ccccc1)(c1ccccc1C)c1ccccc1C
> 20 µM
O=C1/C(=C/c2ccc(Br)s2)NC(=S)N1CN1CCOCC1
> 200 µM
CCOC(=O)Nc1nc2c(s1)c([N+](=O)[O-])cn2C
> 69.2 µM

Now consider a different molecule.
Req: Any idea what EC50 was measured for Cc1noc(NS(=O)(=O)c2ccc(Nc3nc(CC(=O)Nc4ccccc4)cs3)cc2)c1C ?
Resp: > 200 µM

====

tested on: CEM cells HIV-1 protection, formazan growth assay; test: NCI AIDS Antiviral Assay
Activity calls are given as the source filed them.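 How the source made its calls: active means compounds giving half or more protection of infected cells from virus-caused growth loss, again on retest; inactive means the rest.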
Your reply should match one of these outcome classes. y (active), n (inactive)

Some solved entries appear below for comparison.
COC(=O)[C@@H]1CSC(=S)N1C(=O)C[C@@H]1CC=CC[C@@H]1CC(=O)Sc1ccccc1
n
O=[N+]([O-])c1ccccc1CS(=O)(=O)c1ccccc1
n

Req: What did the test return for CC1(Br)C(=O)NC(=O)N(C2CC(N=[N+]=[N-])C(CO)O2)C1N=[N+]=[N-] (stereo unspecified) ?
Resp: y

Req: What was the test verdict on CC(=O)O[C@H]1CC[C@@]2(C)C(=CC[C@@H]3C2CC[C@]2(C)Nc4c(cnn4-c4ccccc4)CC32)C1 (stereo partly specified) ?
Resp: n

Hello, the source for this data is PubChem BioAssay AID179, in case you need it.
